This collection of values is drawn from PubChem BioAssay (EPA / NIEHS).

experimentalSystem: Estrogen receptor (Homo sapiens) (UniProt P03372)
Sequence (P03372 whole entry, looked up): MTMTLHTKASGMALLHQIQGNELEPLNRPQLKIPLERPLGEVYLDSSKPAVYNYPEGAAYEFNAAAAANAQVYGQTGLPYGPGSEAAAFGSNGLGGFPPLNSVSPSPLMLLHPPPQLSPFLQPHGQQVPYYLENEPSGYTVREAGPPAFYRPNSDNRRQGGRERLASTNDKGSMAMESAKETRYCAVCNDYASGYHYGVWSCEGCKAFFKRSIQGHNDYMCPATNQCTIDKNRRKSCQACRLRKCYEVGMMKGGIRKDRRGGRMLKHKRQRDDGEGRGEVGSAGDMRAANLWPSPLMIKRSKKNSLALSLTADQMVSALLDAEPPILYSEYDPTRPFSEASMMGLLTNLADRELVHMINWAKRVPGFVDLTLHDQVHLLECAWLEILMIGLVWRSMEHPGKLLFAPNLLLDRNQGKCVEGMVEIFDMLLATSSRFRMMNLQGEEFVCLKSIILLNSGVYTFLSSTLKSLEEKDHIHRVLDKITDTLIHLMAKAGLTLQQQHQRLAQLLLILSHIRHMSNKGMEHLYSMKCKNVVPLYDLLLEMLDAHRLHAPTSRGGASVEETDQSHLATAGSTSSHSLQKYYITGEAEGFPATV
procedureDetails: CCTE_Deisenroth_AIME_384WELL_LUC_Inactive: CCTE's 384-well Estrogen Receptor Transactivation Assay without AIME metabolic competence (ERTA luciferase; metabolism negative), Deisenroth Lab (AID 2284038);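 also: VM7Luc4E2 breast cells given medium preincubated 2 h with S9-free microspheres; hits raise estrogen receptor luciferase signal so potencies reflect agonists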
Results filed as inconclusive are left out. Active and inactive are the calls of the source. The calls were made as follows: active = hit-call score of the fitted dose curve at least 0.9, where 1 is the maximum; inconclusive = response in the unintended direction; inactive = score below 0.9.
Lab note: assign the record to one of True = active, False = inactive

Below, 5 molecules whose answers are already recorded.
• O=C(C(Cl)Cl)N1CCOC12CCCCC2 = False
• CC=C1CC2C=CC1C2 (configuration not stated) = False
• CCN(CCC#N)c1ccc(N=Nc2c(Cl)cc([N+](=O)[O-])cc2Cl)cc1 = False
• CO[Si](OC)(OC)c1ccccc1 = False
• Cc1ccc(C(C)c2ccc(C)c(C)c2)cc1C = False

Query: recorded result category for O=C(C=Cc1ccccc1)OCc1ccccc1 in this test
True

Lab log entry: CCCCCCCCCCOS(=O)(=O)O — outcome as called in the assay?
False

Can you look up the reported call for NC(CO)(CO)CO for me?
False

Which outcome did this test record for the molecule O=S(=O)(O)c1ccccc1C=Cc1ccc(-c2ccc(C=Cc3ccccc3S(=O)(=O)O)cc2)cc1 ?
False

Per the records of this test, what outcome belongs to CC1=NN(c2cc(S(=O)(=O)O)ccc2Cl)C(=O)C1N=Nc1ccccc1 (configuration not stated) ?
False

Query: recorded result category for CCCCC(CC)CCC(CC(C)C)OS(=O)(=O)O (configuration not stated) in this test
False

Write down the call the test reported for this molecule. Item: C=CC(=O)NC(C)(C)CS(=O)(=O)O
False
